The entries below come with measured pIC50 values attached.
- Test system: NCI-H1299
- assay details: Antiproliferative activity against human H1299 cells after 48 hrs by MTS assay
- Format: functional, cell-based
- condition summary: NCI-H1299, 48 h
FYI, pIC50 means -log10 of a concentration in mol per litre.

Cc1cc(C)c(S(=O)(=O)Nc2ccc(C3(O)CSC(=S)N3Cc3cccnc3)cc2)c(C)c1 (stereo not given)
5.76

response.value for Cc1ccccc1S(=O)(=O)Nc1ccc(C2(O)CSC(=S)N2Cc2cccnc2)cc1 (stereo not given) (field: pIC50) = 5.79

response.value for COc1ncccc1CN1C(=S)SCC1(O)c1ccc(NS(=O)(=O)c2ccc3c(c2)OCCO3)cc1 (stereo not given) (field: pIC50) = 6.08

response.value for O=S(=O)(Nc1ccc(C2(O)CSC(=S)N2Cc2cccnc2)cc1)c1cccc(F)c1 (stereo not given) (field: pIC50) = 5.94

response.value for O=c1ccc2cc(S(=O)(=O)Nc3ccc(C4(O)CSC(=S)N4Cc4cccnc4)cc3)ccc2o1 (stereo not given) (field: pIC50) = 5.78

response.value for CC(=O)O[C@H]1C(=O)[C@@]2(C)[C@H]([C@H](OC(=O)c3ccccc3)[C@]3(O)C[C@H](OC(=O)[C@H](O)[C@@H](NC(=O)c4ccccc4)c4ccccc4)C(C)=C1C3(C)C)[C@]1(OC(C)=O)CO[C@@H]1C[C@@H]2O (field: pIC50) = 5.11

Where do the numbers come from? From ChEMBL document CHEMBL4138196.
